# Tested on: EKVX
# test-method-notes: NCI tumour cell line growth inhibition, 48 h
Calls of active or inactive are those of the source. Rule as the data show it: active = GI50 up to about 1.1 µM and inactive = higher.
Use one of these outcomes when replying: label 1 (active), label 0 (inactive)

Enquiry: Hey, what did the test say about CCC(C)c1cccc(C)c1NC(=O)C(=O)Cc1nc2ccccc2s1 (stereo not given) ?
Return: label 0

Enquiry: Hey, what did the test say about CCOC(=O)c1csc(-c2cn(C)c3c2C(=O)C(OC)=CC3=O)n1 ?
Return: label 0

Enquiry: Hey, what did the test say about CCN(CC)c1ccc(/C=C2\CCc3ccc([N+](=O)[O-])cc3C2=O)cc1 ?
Return: label 0

Enquiry: Hey, what did the test say about COc1ccc2[nH]c3c(C)c4ccnc(NCCCN(C)CCCNc5ccc6nnn7c8ccccc8c(=O)c5c67)c4c(C)c3c2c1 ?
Return: label 1

Enquiry: Hey, what did the test say about O=C1O[B-](c2ccccc2)(c2ccccc2)[NH+]2CCCC12 (stereo not given) ?
Return: label 0

Enquiry: Hey, what did the test say about N#CC12CC3(CCC1CCC1(C2)OCCO1)OCCO3 (stereo not given) ?
Return: label 0

Enquiry: Hey, what did the test say about c1ccc(/N=C2\c3ccccc3C3=NCCCN32)cc1 ?
Return: label 0

Enquiry: Hey, what did the test say about OCC(CO)CC1COc2ccccc2O1 (stereo not given) ?
Return: label 0

Enquiry: Hey, what did the test say about COc1cc2c(cc1O)[C@@H]1Cc3c(cc(OC)c(OC)c3Oc3cc4c(cc3OC)CCN(C)[C@@H]4Cc3ccc(O)cc3)[C@H](C2)N1C ?
Return: label 0

Enquiry: Hey, what did the test say about CC[C@H](C)C1=C(OC(C)=O)[N@+]2([O-])Oc3ccc(-c4c(O)c(O)c(-c5ccc(OC(C)=O)cc5)c(OC(C)=O)c4OC(C)=O)cc3O[C@]2([C@@H](C)CC)C(=O)N1O ?
Return: label 0

Enquiry: Hey, what did the test say about COc1ccccc1NC(=S)NN=C(C)c1cccc(C(C)=NNC(=S)Nc2ccccc2OC)n1 ?
Return: label 0

Enquiry: Hey, what did the test say about CCC1C(=O)OCc2c1cc1n(c2=O)Cc2cc3ccccc3nc2-1 (stereo not given) ?
Return: label 0

Enquiry: Hey, what did the test say about CCN(CC)CCC1(C2CCCCC2)CCC(=O)NC1=O (stereo not given) ?
Return: label 0

Enquiry: Hey, what did the test say about C=CCNC1=C2C[C@@H](C)C[C@@H](OC)C(OC(=O)CCCN(C)C)[C@H](C)/C=C(\C)[C@@H](OC(N)=O)[C@H](OC)/C=C\C=C(/C)C(=O)NC(=CC1=O)C2=O (stereo not given in full) ?
Return: label 0

Enquiry: Hey, what did the test say about CC1(C)CC(=O)C(Cc2ccccc2)(Cc2ccccc2)C(=O)C1 ?
Return: label 0

Enquiry: Hey, what did the test say about CCCCCCCCP(=O)(O)OP(=O)(O)OCC1OC(n2ccc(N)nc2=O)C(O)C1O (stereo not given) ?
Return: label 0

Enquiry: Hey, what did the test say about Cn1c(S)nc(C(N)=O)c1N ?
Return: label 0

Enquiry: Hey, what did the test say about NC(=O)NNc1nc2ccccc2c(=O)n1NC(=O)C(=O)Nc1ccc(Cl)cc1Cl ?
Return: label 0

Enquiry: Hey, what did the test say about Cc1nc(N)c(N2CCN(Cc3ccccc3)CC2)c(O)n1 ?
Return: label 0

Enquiry: Hey, what did the test say about C/C=C1/C=CC2c3[nH]c4ccccc4c3CCN2C1 (stereo not given) ?
Return: label 0

----------
# Test system: SK-MEL-5
# test-method-notes: NCI tumour cell line growth inhibition, 48 h
The source made the active and inactive calls. No stated cut-off is given here; in the data, active = GI50 up to about 1.1 µM and inactive = higher.
Give GI50 for every item shown.

GI50 in this record for CC1[C@@]2(CCC(C)(C)O2)O[C@@H]2C=C3C4CCC5Cc6nc7c(nc6C[C@@]5(C)C4C[C@H](O)[C@@]3(C)[C@]12O)CC1CCC2C3=C[C@H]4O[C@@]5(O[C@@](C)(CO)C[C@@H]5O)C(C)[C@@]4(O)[C@]3(C)[C@@H](O)CC2[C@]1(C)C7 (stereo partly drawn) : 0.0951 µM (active)

GI50 in this record for CC(=O)OC12OC(C)(C3C(=O)N(c4ccccc4)C(=O)C31)N(c1ccccc1)C2=O (stereo not drawn) : > 100 µM (inactive)

GI50 in this record for ICC1CCCO1 (stereo not drawn) : > 100 µM (inactive)

GI50 in this record for O=C1CC(C2(O)C(=O)Nc3ccc([N+](=O)[O-])cc32)c2ccccc21 (stereo not drawn) : 27.7 µM (inactive)

GI50 in this record for OC(c1ccco1)C(F)(F)c1nc2ccccc2o1 (stereo not drawn) : > 100 µM (inactive)

GI50 in this record for Cc1cn(C2CC(OC(c3ccccc3)(c3ccccc3)c3ccccc3)C(COC(c3ccccc3)(c3ccccc3)c3ccccc3)O2)c(=O)[nH]c1=O (stereo not drawn) : 43.3 µM (inactive)

GI50 in this record for Cc1cccc2cc3c(ccc4ccccc43)c[n+]12 : 5.65 µM (inactive)

GI50 in this record for Cc1cc(OCc2nc(N)nc(N)c2-c2ccc(Cl)c(Cl)c2)ccc1[N+](=O)[O-] : 0.224 µM (active)

GI50 in this record for O=C1NC(=O)/C(=N\c2cccc3c(=O)[nH][nH]c(=O)c23)C(c2nc3ccccc3s2)C1=O (stereo not drawn) : > 100 µM (inactive)

GI50 in this record for N=C1N(/N=C/c2ccccn2)/C(=N\c2ccccc2)C(=S)N1c1ccccc1 : 4.48 µM (inactive)

GI50 in this record for CCOc1cc2c(C(=O)CC)c(O)ccc2o1 : > 39.3 µM (inactive)

GI50 in this record for O=C(O)CNc1ccc(C(=O)O)cc1 : > 100 µM (inactive)

GI50 in this record for Cn1cnc([N+](=O)[O-])c1Sc1ccccn1 : > 100 µM (inactive)

GI50 in this record for O=C1c2ccccc2C(=O)c2c(NCCNC(=O)C3CCCN3)ccc(NCCNC(=O)C3CCCN3)c21 (stereo not drawn) : 88.5 µM (inactive)

GI50 in this record for Cn1c(=O)c(C(c2ccc([N+](=O)[O-])cc2)c2c(O)c3ccccc3n(C)c2=O)cc2ccccc21 (stereo not drawn) : 51.3 µM (inactive)

GI50 in this record for COc1cccc(C(=O)O[C@H]2[C@@H]3[C@]4(OC(C)=O)CO[C@@H]4C[C@H](O)[C@@]3(C)C(=O)[C@H](OC(C)=O)C3=C(C)[C@@H](OC(=O)[C@H](O)[C@@H](NC(=O)OC(C)(C)C)c4ccco4)C[C@]2(O)C3(C)C)c1 : < 0.00375 µM (active)

GI50 in this record for COCCCN(Cc1cc(OC)c(OC)c(OC)c1)C(=S)Nc1cccc(Cl)c1 : 13.9 µM (inactive)

GI50 in this record for CC(Br)C(=O)c1ccc2cc(Br)c3ccccc3c2c1 (stereo not drawn) : 14 µM (inactive)

----------
# Tested on: CCRF-CEM
# test-method-notes: NCI tumour cell line growth inhibition, 48 h
Active and inactive are the calls of the source. No stated cut-off is given here; in the data, active = GI50 up to about 1.1 µM and inactive = higher.
Use one of these outcomes when replying: active, inactive

Enquiry: Hey, what did the test say about O=c1c2ncn(CCCl)c2n(-c2ccccc2)c(=S)n1-c1ccccc1 ?
Return: inactive

Enquiry: Hey, what did the test say about CC1[C@@]2(CCC(C)(C)O2)O[C@@H]2C=C3C4CCC5Cc6nc7c(nc6C[C@@]5(C)C4C[C@H](O)[C@@]3(C)[C@]12O)CC1CCC2C3=C[C@H]4O[C@@]5(O[C@@](C)(CO)C[C@@H]5O)C(C)[C@@]4(O)[C@]3(C)[C@@H](O)CC2[C@]1(C)C7 (some centres undefined) ?
Return: active

Enquiry: Hey, what did the test say about CN(C)CC1CCC/C(=C\c2ccc(N(C)C)cc2)C1=O (centres undefined) ?
Return: inactive

Enquiry: Hey, what did the test say about CC(C)C(=O)CC(c1ccc(Br)cc1)N1N=C(C(C)C)CC1c1ccc(Br)cc1 (centres undefined) ?
Return: inactive

----------
# Test system: SF-539
# test-method-notes: NCI tumour cell line growth inhibition, 48 h
Active and inactive are the calls of the source. Rule as the data show it: active = GI50 up to about 1.1 µM and inactive = higher.
Give GI50 for every item shown.

GI50 in this record for O=C1OC(/C=C/c2ccccc2)C(=O)C1=O (centres undefined) : > 100 µM (inactive)

GI50 in this record for COc1ccc(/C=N/c2nc3cc4sc(/N=C/c5ccc(OC)cc5)nc4cc3s2)cc1 : > 100 µM (inactive)

GI50 in this record for O=C(CC(=O)N1N=C(n2ccc3ccccc32)CC1c1ccccc1)Nc1cccc(Cl)c1 (centres undefined) : > 100 µM (inactive)

GI50 in this record for CC(=O)NC1C(OCc2ccccc2)OC(CO)C(O)C1OCC(=O)N[C@@H](C)C(=O)N[C@H](CCC(=O)NCCNc1ccc([N+](=O)[O-])c2[nH]c3ccccc3c(=O)c12)C(N)=O (some centres undefined) : 2.21 µM (inactive)

----------
# Tested on: SN12C
# test-method-notes: NCI tumour cell line growth inhibition, 48 h
Calls of active or inactive are those of the source. Cut-off read from the data, not from the text of the source: active = GI50 up to about 1.1 µM and inactive = higher.
Use one of these outcomes when replying: active, inactive

Enquiry: Hey, what did the test say about O=C(CC(C(=O)c1ccsc1)c1ccccc1)c1cccs1 (configuration not stated) ?
Return: inactive

Enquiry: Hey, what did the test say about CC(C)=CCc1c(C)cc2cc3c(c(O)c2c1O)C(=O)C=C(O)C3(CC=C(C)C)C/C=C(\C)CO (configuration not stated) ?
Return: inactive

Enquiry: Hey, what did the test say about NC(=O)NNc1nc2ccccc2c(=O)n1NC(=O)C(=O)Nc1ccc(Cl)cc1Cl ?
Return: inactive

Enquiry: Hey, what did the test say about NC(Cc1ccc(OCc2ccccc2)cn1)C(=O)O (configuration not stated) ?
Return: inactive

Enquiry: Hey, what did the test say about COc1ccccc1NC(=S)NN=C(C)c1cccc(C(C)=NNC(=S)Nc2ccccc2OC)n1 ?
Return: inactive

Enquiry: Hey, what did the test say about CN(C)C1(c2cc3ccccc3s2)CCCCC1 ?
Return: inactive

Enquiry: Hey, what did the test say about CC1(C)OC(=O)C(Cc2ccccc2)(Cc2ccccc2)C(=O)O1 ?
Return: inactive

Enquiry: Hey, what did the test say about Nc1ccc(/N=N/c2ccccc2)cc1 ?
Return: inactive

Enquiry: Hey, what did the test say about N#Cc1c(NC(=S)Nc2ccc(Cl)cc2)sc2c1CCCC2 ?
Return: inactive

Enquiry: Hey, what did the test say about CC(=O)c1sc2c(c1OC(=O)c1ccccc1)c(=O)n(-c1ccccc1)c(=S)n2-c1ccccc1 ?
Return: inactive

Enquiry: Hey, what did the test say about O=C1CSC(C(/N=N/c2ccccc2)=C2Nc3ccccc3N2)=N1 ?
Return: inactive

Enquiry: Hey, what did the test say about COC(=O)[C@H]1COC(=O)N1 ?
Return: inactive

Enquiry: Hey, what did the test say about Cc1ccc2nc3c(C)c(Cl)c(=O)cc-3sc2c1 ?
Return: inactive

Enquiry: Hey, what did the test say about O=C1CC(=O)N(C2CCCCC2)C(=O)N1c1ccccc1S(=O)(=O)Oc1ccccc1 ?
Return: inactive

Enquiry: Hey, what did the test say about Cc1cn(C2CC(OC(c3ccccc3)(c3ccccc3)c3ccccc3)C(COC(c3ccccc3)(c3ccccc3)c3ccccc3)O2)c(=O)[nH]c1=O (configuration not stated) ?
Return: inactive

Enquiry: Hey, what did the test say about O=C1CCCCC1C(O)(C(F)(F)F)C(F)(F)Cl (configuration not stated) ?
Return: inactive

Enquiry: Hey, what did the test say about O=C1C=C(N2CC2)C(=O)C=C1N1CC1 ?
Return: active

Enquiry: Hey, what did the test say about CC1(C)CCC(Sc2ccccc2)O1 (configuration not stated) ?
Return: inactive

Enquiry: Hey, what did the test say about COC(=O)[C@@H]1C(=O)O[C@@H](c2ccc3c(c2)OCO3)[C@@H]1C(=O)OC.COC(=O)[C@H]1C(=O)O[C@@H](c2ccc3c(c2)OCO3)[C@@H]1C(=O)OC ?
Return: inactive

Enquiry: Hey, what did the test say about CCOC(=O)C1=C(Nc2cccc3ccccc23)OC/C1=N\NC(=O)c1ccccc1O ?
Return: inactive

Enquiry: Hey, what did the test say about CNC(=S)N/N=C1\CC(c2ccccc2)Oc2ccccc21 (configuration not stated) ?
Return: inactive

Enquiry: Hey, what did the test say about O=C(NN1C(=O)C(Cl)C1c1cccc(Cl)c1)c1ccccc1O (configuration not stated) ?
Return: inactive
